pIC50: −log10 of the molar value. *1 amine or outer side, *2 acyl side, *3 side chain or, on linkers, in order; H or OH if unused. Where a SMILES comes first, the peptide text is derived from it. Bridges are numbered along the chain shown (N, C = ends). [ ]: non-standard residue; d: D form. The star is where a group is joined. Ahp(3S,6R)alloIle = CC[C@@H](C)[C@@H](C(=O)[*:2])N1C(=O)[C@@H](N[*:1])CC[C@H]1O; Propanoyl(2R-OMe,3-OSO3H) = CO[C@H](COS(=O)(=O)O)C(=O)*; NMeTyr(3-Br,OMe) = CN[C@@H](Cc1ccc(OC)c(Br)c1)C(=O)O
Below are pIC50 values recorded for UniProtKB P00766.

The following compounds have reported results that may help.
COMPOUND	VAL
CC[C@@H](C)[C@H]1C(=O)N(C)[C@@H](Cc2ccc(OC)c(Br)c2)C(=O)N[C@@H]([C@@H](C)CC)C(=O)O[C@H](C)[C@H](NC(=O)[C@H](NC(=O)[C@H](O)COS(=O)(=O)O)C(C)C)C(=O)N[C@@H](CCCCN)C(=O)N[C@H]2CC[C@@H](O)N1C2=O [Jizanpeptin A (1), Jizanpeptin A]	< 5.00
CC[C@@H](C)[C@H]1C(=O)N(C)[C@@H](Cc2ccc(OC)c(Br)c2)C(=O)N[C@@H]([C@@H](C)CC)C(=O)O[C@H](C)[C@H](NC(=O)[C@H](NC(=O)[C@@H](COS(=O)(=O)O)OC)C(C)C)C(=O)N[C@@H](CCCNC(=N)N)C(=O)N[C@H]2CC[C@@H](O)N1C2=O [Jizanpeptin E (5), Jizanpeptin E]	< 5.00

Here's the next entry for you.
pIC50 for UniProtKB P00766 with input CC[C@@H](C)[C@H]1C(=O)N(C)[C@@H](Cc2ccc(OC)c(Br)c2)C(=O)N[C@@H]([C@@H](C)CC)C(=O)O[C@H](C)[C@H](NC(=O)[C@@H](NC(=O)[C@@H](COS(=O)(=O)O)OC)[C@@H](C)CC)C(=O)N[C@@H](CCCCN)C(=O)N[C@H]2CC[C@@H](O)N1C2=O [Jizanpeptin D (4), Jizanpeptin D] ({Propanoyl(2R-OMe,3-OSO3H)}-ITK[Ahp(3S,6R)alloIle][NMeTyr(3-Br,OMe)]I; ester 2-C) equals < 5.00
